- SYSTEM TESTED: Rhesus PDE2A3 (Macaca mulatta, UniProt B3VTJ2)
- Sequence (B3VTJ2 1-941): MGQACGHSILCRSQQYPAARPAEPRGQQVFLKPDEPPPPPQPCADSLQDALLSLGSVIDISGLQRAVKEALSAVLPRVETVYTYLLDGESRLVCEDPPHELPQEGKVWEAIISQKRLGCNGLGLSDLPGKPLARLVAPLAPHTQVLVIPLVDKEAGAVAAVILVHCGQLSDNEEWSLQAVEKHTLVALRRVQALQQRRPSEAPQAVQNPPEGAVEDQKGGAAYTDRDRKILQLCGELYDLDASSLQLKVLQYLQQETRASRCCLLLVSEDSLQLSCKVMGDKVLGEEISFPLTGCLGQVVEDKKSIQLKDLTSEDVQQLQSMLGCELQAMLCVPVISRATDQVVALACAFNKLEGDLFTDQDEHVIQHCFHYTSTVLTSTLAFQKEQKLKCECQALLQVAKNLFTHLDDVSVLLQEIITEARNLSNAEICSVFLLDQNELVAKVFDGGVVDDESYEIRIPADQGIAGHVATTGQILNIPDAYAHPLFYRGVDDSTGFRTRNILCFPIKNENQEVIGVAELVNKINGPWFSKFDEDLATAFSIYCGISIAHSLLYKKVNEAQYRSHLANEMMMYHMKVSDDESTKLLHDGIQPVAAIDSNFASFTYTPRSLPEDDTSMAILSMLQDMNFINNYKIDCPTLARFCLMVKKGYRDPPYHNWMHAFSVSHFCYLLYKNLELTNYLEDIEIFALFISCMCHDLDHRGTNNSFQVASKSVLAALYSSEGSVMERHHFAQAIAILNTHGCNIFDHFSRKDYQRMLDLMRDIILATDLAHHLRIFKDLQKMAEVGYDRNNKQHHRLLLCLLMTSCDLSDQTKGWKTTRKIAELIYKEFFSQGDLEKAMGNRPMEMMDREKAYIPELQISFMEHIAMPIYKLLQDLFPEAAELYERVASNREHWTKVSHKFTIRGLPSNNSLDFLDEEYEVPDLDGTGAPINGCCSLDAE
- EXPERIMENT DESCRIPTION: IMAP fluorescence polarization assay, rhesus PDE2A3 lysate from transfected AD293 cells
- EXPERIMENTAL CONTEXT: FAM-labeled cAMP 50 nM, activator cGMP 1 uM; read-out: Rhesus PDE2 Ki
MEASUREMENT TYPE: Ki (nM)

[[record]]
molecule = "Cc1nc(-c2nnn3c2CCC[C@]3(C)c2ccc(C(F)(F)F)cc2Cl)cc(=O)[nH]1 (single isomer, unassigned) [Example 87]"
measurement_type = "Ki"
value = 1.8

[[record]]
molecule = "Cc1nc(-c2cn(C(C)c3ccc(C(F)(F)F)c(F)c3F)nn2)cc(=O)[nH]1 (single isomer, unassigned) [Example 21]"
measurement_type = "Ki"
value = 3.9


I: CC(c1ccc(C(F)(F)F)cc1F)n1cc(-c2cc(=O)[nH]c(CC3CC3)n2)nn1 (stereo not shown) [Example 14]
II: CCc1ccc(C(C)n2cc(-c3cc(=O)[nH]c(C)n3)nn2)c(Cl)c1 (single isomer, unassigned) [Example 19]
III: Cc1nc(-c2nnn3c2CCC3(C)c2ccc(C(F)(F)F)cc2F)cc(=O)[nH]1 (single isomer, unassigned) [Example 97]
IV: CC/C=C/c1nc(-c2cn(C(C)c3ccc(C(F)(F)F)cc3F)nn2)cc(=O)[nH]1 (stereo not shown) [Example 15]
V: Cc1nc(-c2cn(C(C)c3ccc(C(F)(F)F)cc3)nn2)cc(=O)[nH]1 (single isomer, unassigned) [Example 17]
Arrange these molecules by their Ki, starting with the largest number. Response field: labels, in requested order. V, I, IV, II, III
(V: 44.7 nM, I: 24.9 nM, IV: 6.5 nM, II: 3.4 nM, III: 1.3 nM)

---

- SYSTEM TESTED: Rhesus PDE2A3 (Macaca mulatta, UniProt B3VTJ2)
- EXPERIMENT DESCRIPTION: IMAP fluorescence polarization assay, rhesus PDE2A3 lysate from transfected AD293 cells
- EXPERIMENTAL CONTEXT: FAM-labeled cAMP 50 nM, activator cGMP 1 uM; read-out: Rhesus PDE2 Ki
MEASUREMENT TYPE: Ki (nM)

// known answers, use as guide
[[record]]
compound = "Cc1nc(-c2cn(C3(c4ccc(C(F)(F)F)cc4Cl)CCC3)nn2)cc(=O)[nH]1 [Example 29]"
measurement_type = "Ki"
value = 0.63

[[record]]
compound = "Cc1nc(-c2nnc(C(C)c3ccc(C(F)(F)F)cc3)[nH]2)cc(=O)[nH]1 (stereo not shown) [Example 60]"
measurement_type = "Ki"
value = 204

[[record]]
compound = "Cc1nc(-c2cn(C(C)c3ccc(OC(F)(F)F)cc3)nn2)cc(=O)[nH]1 (stereo not shown) [Example 11]"
measurement_type = "Ki"
value = 50.4


I: Cc1nc(-c2nnc3n2CCC[C@]3(C)c2ccc(C(F)(F)F)cc2F)cc(=O)[nH]1 (single isomer, unassigned) [Example 81]
II: Cc1nc(-c2cn(C(C)c3ccc(C(F)(F)F)cc3F)nn2)cc(=O)[nH]1 (single isomer, unassigned) [Example 28]
III: COc1ccc(Cc2nc(-c3nnn4c3CCC[C@]4(C)c3ccc(C(F)(F)F)cc3F)cc(=O)[nH]2)cc1 (single isomer, unassigned) [Example 89]
Arrange these 3 compounds in increasing order of Ki. Response field: labels, in requested order. III, I, II
(III: 0.63 nM, I: 1.7 nM, II: 9 nM)
